Origin of the recorded values: patent US20180334510A1

- experimental.system: T1, Aurora A kinase (human, UniProt O14965 122-403, limits assumed)
- T1 construct: also called AurA; deP AurA
- T1 sequence: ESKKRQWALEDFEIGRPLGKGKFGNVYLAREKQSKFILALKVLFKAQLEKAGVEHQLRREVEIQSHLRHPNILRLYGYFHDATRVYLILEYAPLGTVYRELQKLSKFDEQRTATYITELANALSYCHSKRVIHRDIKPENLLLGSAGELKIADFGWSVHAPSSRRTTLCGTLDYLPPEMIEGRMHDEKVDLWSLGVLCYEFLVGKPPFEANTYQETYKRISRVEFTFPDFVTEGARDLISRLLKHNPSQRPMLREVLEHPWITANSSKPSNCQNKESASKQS
- protocol.text: method not stated; told in the isothermal titration calorimetry paragraph
measurement.name: pKd
Lab note: report pKd as minus log10 of the concentration in molar units, number only.

Entry under review: MSQVKSSYSYDAPSDFINFSSLDDEGDTQNIDSWFEEKANLENKL (other, also called TPX2 polypeptide) [TPX2] . Reported pKd? 4.30
